All values here come from ChEMBL document CHEMBL1124503.

# Organism: Oryctolagus cuniculus
# assayText: Antagonist activity pA2, was measured in the in vitro rabbit aorta strip assay
# Format: functional
# conditionDetails: read-out: pA2 (converted)
*1 amine or outer side, *2 acyl side, *3 side chain or, on linkers, in order; H or OH if unused. Where a SMILES comes first, the peptide text is derived from it. [ ]: non-standard residue; d: D form. X2 = CC(=O)NCSc1ccc(C[C@H](N[*:1])C(=O)[*:2])cc1; Phe(4-Cl) = N[C@@H](Cc1ccc(Cl)cc1)C(=O)O; Phe(4-F) = N[C@@H](Cc1ccc(F)cc1)C(=O)O; Sar = CNCC(=O)O
assayEndpoint: Kb (nM)
Just the number in nM, nothing appended.

Please report Kb for the following compound: CC[C@H](C)[C@H](NC(=O)C1CCCN1C(=O)[C@H](Cc1c[nH]cn1)NC(=O)[C@@H](NC(=O)[C@H](Cc1ccc(O)cc1)NC(=O)[C@@H](NC(=O)[C@H](CCCN=C(N)N)NC(=O)CNC)C(C)C)[C@@H](C)CC)C(=O)O (single isomer, unassigned)
0.794

Please report Kb for the following compound: "CC[C@H](C)[C@H](NC(=O)[C@H](Cc1ccc(O)cc1)NC(=O)[C@@H](NC(=O)[C@H](CCCN=C(N)N)NC(=O)CNC)C(C)C)C(=O)N[C@@H](Cc1c[nH]cn1)C(=O)N1CCC[C@H]1C(=O)N[C@H](Cc1ccc(O)cc1)C(=O)O"
5.62

Please report Kb for the following compound: CC[C@H](C)[C@H](NC(=O)[C@@H]1CCCN1C(=O)[C@H](Cc1c[nH]cn1)NC(=O)[C@@H](NC(=O)[C@H](Cc1ccc(F)cc1)NC(=O)[C@@H](NC(=O)[C@H](CCCN=C(N)N)NC(=O)CNC)C(C)C)[C@@H](C)CC)C(=O)O (H-[Sar]RV[Phe(4-F)]IHPI-OH)
158

Please report Kb for the following compound: "CC[C@H](C)[C@H](NC(=O)[C@H](Cc1ccc(F)cc1)NC(=O)[C@@H](NC(=O)[C@H](CCCN=C(N)N)NC(=O)CNC)C(C)C)C(=O)N[C@@H](Cc1c[nH]cn1)C(=O)N1CCC[C@H]1C(=O)N[C@@H](Cc1ccccc1)C(=O)O"
31.6

Please report Kb for the following compound: "CC[C@H](C)[C@H](NC(=O)[C@H](Cc1ccc(O)cc1)NC(=O)[C@@H](NC(=O)[C@H](CCCN=C(N)N)NC(=O)CNC)C(C)C)C(=O)N[C@@H](Cc1c[nH]cn1)C(=O)N1CCC[C@H]1C(=O)N[C@H](Cc1ccccc1)C(=O)O"
1

Please report Kb for the following compound: CC[C@H](C)[C@H](NC(=O)[C@H](Cc1ccc(SCNC(C)=O)cc1)NC(=O)[C@@H](NC(=O)[C@H](CCCN=C(N)N)NC(=O)CNC)C(C)C)C(=O)N[C@@H](Cc1c[nH]cn1)C(=O)N1CCC[C@H]1C(=O)N[C@@H](Cc1ccccc1)C(=O)O (H-[Sar]RV[X2]IHPF-OH)
8.13

Please report Kb for the following compound: CC[C@H](C)[C@H](NC(=O)[C@H](Cc1ccc(Cl)cc1)NC(=O)[C@@H](NC(=O)[C@H](CCCN=C(N)N)NC(=O)CNC)C(C)C)C(=O)N[C@@H](Cc1c[nH]cn1)C(=O)N1CCC[C@H]1C(=O)N[C@@H](Cc1ccccc1)C(=O)O (H-[Sar]RV[Phe(4-Cl)]IHPF-OH)
31.6
